test method notes: DPPH antioxidant assay
Format: physicochemical
recorded conditions: 250 µg/ml; mean ± SEM
Sorting guide: entries reporting % Inhibition (DPPH free radicals) beneath 70% go in the true (1) pile, the rest go in the false (0) pile.

C/C(=N/Cc1ccc(Cl)cc1)[C@H]1CC[C@H]2[C@@H]3CCC4=CC(=O)CC[C@]4(C)[C@H]3CC[C@]12C    true (1)
C/C(=N/Cc1ccccc1)[C@H]1CC[C@H]2[C@@H]3CCC4=CC(=O)CC[C@]4(C)[C@H]3CC[C@]12C    true (1)
C/C(=N/Cc1ccc(C)cc1)[C@H]1CC[C@H]2[C@@H]3CCC4=CC(=O)CC[C@]4(C)[C@H]3CC[C@]12C    true (1)
COc1ccc(C/N=C(/C)[C@H]2CC[C@H]3[C@@H]4CCC5=CC(=O)CC[C@]5(C)[C@H]4CC[C@]23C)cc1OC    true (1)
O=C1O[C@H]([C@@H](O)CO)C(O)=C1O [Ascorbic Acid, Ascorbic acid, reference compound]    false (0)

====

test method notes: DPPH antioxidant assay
Type: physicochemical
recorded conditions: 62.5 µg/ml; mean ± SEM
measured attribute: % Inhibition (DPPH free radicals) (%)

O=C1O[C@H]([C@@H](O)CO)C(O)=C1O [Ascorbic Acid, Ascorbic acid, reference compound]    67.69
COc1ccc(C/N=C(/C)[C@H]2CC[C@H]3[C@@H]4CCC5=CC(=O)CC[C@]5(C)[C@H]4CC[C@]23C)cc1OC    54.18
C/C(=N/Cc1ccc(C)cc1)[C@H]1CC[C@H]2[C@@H]3CCC4=CC(=O)CC[C@]4(C)[C@H]3CC[C@]12C    55.65
C/C(=N/Cc1ccccc1)[C@H]1CC[C@H]2[C@@H]3CCC4=CC(=O)CC[C@]4(C)[C@H]3CC[C@]12C    52.18
COc1ccc(C/N=C(/C)[C@H]2CC[C@H]3[C@@H]4CCC5=CC(=O)CC[C@]5(C)[C@H]4CC[C@]23C)cc1    56.46
C/C(=N/Cc1ccc(Cl)cc1)[C@H]1CC[C@H]2[C@@H]3CCC4=CC(=O)CC[C@]4(C)[C@H]3CC[C@]12C    46.88

====

test system: AChE (source Electric eel) (Electrophorus electricus, UniProt O42275)
Construct: from tissue
Sequence (O42275 24-633): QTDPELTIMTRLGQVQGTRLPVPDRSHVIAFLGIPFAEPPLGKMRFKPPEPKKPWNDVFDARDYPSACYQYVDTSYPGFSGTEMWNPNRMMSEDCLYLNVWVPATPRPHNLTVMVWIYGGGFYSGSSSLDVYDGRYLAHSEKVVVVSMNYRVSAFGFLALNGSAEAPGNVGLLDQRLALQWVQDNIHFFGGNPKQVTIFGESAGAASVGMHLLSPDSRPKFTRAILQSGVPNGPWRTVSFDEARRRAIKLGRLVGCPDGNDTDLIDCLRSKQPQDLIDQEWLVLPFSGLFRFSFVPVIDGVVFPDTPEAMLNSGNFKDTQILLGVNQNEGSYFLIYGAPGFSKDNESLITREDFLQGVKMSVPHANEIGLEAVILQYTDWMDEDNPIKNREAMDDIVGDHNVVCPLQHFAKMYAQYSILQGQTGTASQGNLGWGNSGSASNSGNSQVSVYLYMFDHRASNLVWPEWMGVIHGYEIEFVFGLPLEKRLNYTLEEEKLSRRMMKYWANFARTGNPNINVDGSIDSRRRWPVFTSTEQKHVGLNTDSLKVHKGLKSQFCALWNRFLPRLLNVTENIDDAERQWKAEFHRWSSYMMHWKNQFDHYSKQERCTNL
test method notes: biochemical
recorded conditions: read-out: % AChE Inhibition
Property: inhibition at 500 µg/mL; scope: individual molecules
measured attribute: inhibition at 500 µg/mL

C/C(=N/Cc1ccccc1)[C@H]1CC[C@H]2[C@@H]3CCC4=CC(=O)CC[C@]4(C)[C@H]3CC[C@]12C    77.3%
C/C(=N/Cc1ccc(C)cc1)[C@H]1CC[C@H]2[C@@H]3CCC4=CC(=O)CC[C@]4(C)[C@H]3CC[C@]12C    75.7%
COc1ccc(C/N=C(/C)[C@H]2CC[C@H]3[C@@H]4CCC5=CC(=O)CC[C@]5(C)[C@H]4CC[C@]23C)cc1OC    78.2%
C/C(=N/Cc1ccc(Cl)cc1)[C@H]1CC[C@H]2[C@@H]3CCC4=CC(=O)CC[C@]4(C)[C@H]3CC[C@]12C    67.7%
COc1ccc(C/N=C(/C)[C@H]2CC[C@H]3[C@@H]4CCC5=CC(=O)CC[C@]5(C)[C@H]4CC[C@]23C)cc1    83.2%
